Molecular target: Steroid 5-alpha-reductase (Rattus norvegicus, UniProt P24008+P31214)
Sequence (P24008 whole entry): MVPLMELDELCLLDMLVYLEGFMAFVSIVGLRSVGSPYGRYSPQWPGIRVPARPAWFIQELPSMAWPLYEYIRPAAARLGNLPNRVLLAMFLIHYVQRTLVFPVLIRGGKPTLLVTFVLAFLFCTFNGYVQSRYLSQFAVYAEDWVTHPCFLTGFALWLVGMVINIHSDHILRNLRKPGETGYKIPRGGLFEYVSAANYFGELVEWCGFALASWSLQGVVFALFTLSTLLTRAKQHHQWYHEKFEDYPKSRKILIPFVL
Sequence (P31214 whole entry): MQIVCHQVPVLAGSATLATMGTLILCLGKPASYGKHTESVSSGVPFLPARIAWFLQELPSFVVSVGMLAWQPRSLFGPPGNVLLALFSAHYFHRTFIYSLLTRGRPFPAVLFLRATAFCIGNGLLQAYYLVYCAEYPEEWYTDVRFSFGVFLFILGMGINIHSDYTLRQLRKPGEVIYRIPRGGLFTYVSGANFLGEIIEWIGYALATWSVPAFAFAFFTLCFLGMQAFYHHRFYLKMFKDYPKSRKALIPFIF
Experiment: Ability to inhibit Steroid 5-alpha-reductase in rat using Enzyme kinetics method.
Item-by-item account of Ki
Write it as a number; the unit nM goes unstated.

>>> val("CCOP(=O)(OCC)C1=CC2=CCC3C(CC[C@@]4(C)C3CC[C@@H]4C(=O)NC(C)(C)C)[C@@]2(C)CC1 (stereo partly specified)")
18.1
>>> val("CC(C)(C)NC(=O)[C@H]1CC[C@H]2[C@@H]3CC[C@H]4NC(=O)C=C[C@]4(C)[C@H]3CC[C@]12C [FINASTERIDE]")
54.7

Now for the compound whose Ki we want.
I'm curious: which Ki was measured for CC(C)(C)NC(=O)[C@H]1CCC2C3CC=C4C=C(C#Cc5ccccc5)CC[C@]4(C)C3CC[C@@]21C (stereo partly specified) tested on Steroid 5-alpha-reductase (Rattus norvegicus, UniProt P24008+P31214)?
45.8

----------
Biological target: Steroid 5-alpha-reductase (Rattus norvegicus, UniProt P24008+P31214)
Experiment: Ability to inhibit Steroid 5-alpha-reductase in rat using Isotope method [3H]T to [3H]-DHT]
TEST_READOUT: Ki (nM)
Write it as a number; the unit nM goes unstated.

Worked examples, 2 molecules total:
>>> val("CCOP(=O)(OCC)C1=CC2=CCC3C(CC[C@@]4(C)C3CC[C@@H]4C(=O)NC(C)(C)C)[C@@]2(C)CC1 (stereo partly specified)")
68.5
>>> val("CC(C)(C)NC(=O)[C@H]1CCC2C3CC=C4C=C(C#Cc5ccccc5)CC[C@]4(C)C3CC[C@@]21C (stereo partly specified)")
100.2

Item CC(C)(C)NC(=O)[C@H]1CC[C@H]2[C@@H]3CC[C@H]4NC(=O)C=C[C@]4(C)[C@H]3CC[C@]12C [FINASTERIDE] has what recorded Ki?
88.2

----------
Item-by-item account of Ki
Target: Steroid 5-alpha-reductase (Rattus norvegicus, UniProt P24008+P31214)
Assay: Ability to inhibit Steroid 5-alpha-reductase in rat using Enzyme kinetics method.

Worked examples, 2 compounds total:
>>> val("CCN(CC)C(=O)C1=CC2=CCC3C(CC[C@@]4(C)C3CC[C@@H]4C(=O)NC(C)(C)C)[C@@]2(C)CC1 (stereo partly drawn)")
">> 1000 nM"
>>> val("CC(C)(C)NC(=O)[C@H]1CCC2C3CC=C4C=CCC[C@]4(C)C3CC[C@@]21C (stereo partly drawn)")
">> 1000 nM"

Item CC(=O)C1=CC2=CCC3C(CC[C@@]4(C)C3CC[C@@H]4C(=O)NC(C)(C)C)[C@@]2(C)CC1 (stereo partly drawn) has what recorded Ki?
>> 1000 nM

----------
Item-by-item account of Ki
Target: Steroid 5-alpha-reductase (Rattus norvegicus, UniProt P24008+P31214)
Sequence (P24008 whole entry): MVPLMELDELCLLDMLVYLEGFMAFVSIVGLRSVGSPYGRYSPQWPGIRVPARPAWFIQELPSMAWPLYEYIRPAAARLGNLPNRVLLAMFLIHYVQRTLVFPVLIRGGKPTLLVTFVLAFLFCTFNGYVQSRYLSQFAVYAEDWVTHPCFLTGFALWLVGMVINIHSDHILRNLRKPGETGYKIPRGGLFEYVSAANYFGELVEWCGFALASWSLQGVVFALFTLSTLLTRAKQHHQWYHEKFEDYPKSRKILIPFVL
Sequence (P31214 whole entry): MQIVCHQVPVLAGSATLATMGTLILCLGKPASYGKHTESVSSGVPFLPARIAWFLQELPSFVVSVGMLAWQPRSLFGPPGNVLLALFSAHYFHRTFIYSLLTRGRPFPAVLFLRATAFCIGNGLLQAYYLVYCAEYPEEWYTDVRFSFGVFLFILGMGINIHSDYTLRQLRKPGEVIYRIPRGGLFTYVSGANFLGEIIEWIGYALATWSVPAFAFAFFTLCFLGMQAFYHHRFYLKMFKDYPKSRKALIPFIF
Test: Ability to inhibit Steroid 5-alpha-reductase in rat using Isotope method [3H]T to [3H]-DHT]

Worked examples, 2 molecules total:
>>> val("CC(=O)C1=CC2=CCC3C(CC[C@@]4(C)C3CC[C@@H]4C(=O)NC(C)(C)C)[C@@]2(C)CC1 (stereo partly drawn)")
">> 1000 nM"
>>> val("CCN(CC)C(=O)C1=CC2=CCC3C(CC[C@@]4(C)C3CC[C@@H]4C(=O)NC(C)(C)C)[C@@]2(C)CC1 (stereo partly drawn)")
">> 1000 nM"

Item CC(C)(C)NC(=O)[C@H]1CCC2C3CC=C4C=CCC[C@]4(C)C3CC[C@@]21C (stereo partly drawn) has what recorded Ki?
>> 1000 nM
